target: T1, SARS-CoV-2 spike trimer S (Wuhan, SmT1) (SARS-CoV-2 Wuhan); experiment: SPR, antigen on chip
T1 construct: extracellular domain
For each record, write down the corresponding kon.

Hi there! I need kon for each item below, if you can.
1. NRCoV2-MRed18 VHH (VHH) VHH: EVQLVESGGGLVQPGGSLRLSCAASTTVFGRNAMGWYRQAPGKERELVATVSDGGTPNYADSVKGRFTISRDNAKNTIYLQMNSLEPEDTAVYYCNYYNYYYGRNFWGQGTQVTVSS
2. NRCoV2-MRed25 VHH (VHH) VHH: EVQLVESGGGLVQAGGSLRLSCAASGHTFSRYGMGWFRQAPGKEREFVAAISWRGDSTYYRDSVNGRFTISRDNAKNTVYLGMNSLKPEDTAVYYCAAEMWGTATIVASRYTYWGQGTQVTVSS
3. NRCoV2-MRed20 VHH (VHH) VHH: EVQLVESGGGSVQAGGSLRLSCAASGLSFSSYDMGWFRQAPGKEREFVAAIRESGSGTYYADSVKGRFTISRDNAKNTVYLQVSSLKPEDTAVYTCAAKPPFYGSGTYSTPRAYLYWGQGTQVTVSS
4. NRCoV2-MRed11 VHH (VHH) VHH: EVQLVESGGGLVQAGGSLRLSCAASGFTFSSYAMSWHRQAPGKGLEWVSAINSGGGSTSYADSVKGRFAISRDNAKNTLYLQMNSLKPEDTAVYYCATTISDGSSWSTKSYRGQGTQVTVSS

Key:
["202000 M⁻¹ s⁻¹", "112000 M⁻¹ s⁻¹", "160000 M⁻¹ s⁻¹", "23400 M⁻¹ s⁻¹"]

Hey, just so you know, these numbers are from patent US20240270826A1.
